// data source = patent US20240115557A1

Biological target: SaCas9 (Staphylococcus aureus)
Sequence (J7RUA5 1-1053): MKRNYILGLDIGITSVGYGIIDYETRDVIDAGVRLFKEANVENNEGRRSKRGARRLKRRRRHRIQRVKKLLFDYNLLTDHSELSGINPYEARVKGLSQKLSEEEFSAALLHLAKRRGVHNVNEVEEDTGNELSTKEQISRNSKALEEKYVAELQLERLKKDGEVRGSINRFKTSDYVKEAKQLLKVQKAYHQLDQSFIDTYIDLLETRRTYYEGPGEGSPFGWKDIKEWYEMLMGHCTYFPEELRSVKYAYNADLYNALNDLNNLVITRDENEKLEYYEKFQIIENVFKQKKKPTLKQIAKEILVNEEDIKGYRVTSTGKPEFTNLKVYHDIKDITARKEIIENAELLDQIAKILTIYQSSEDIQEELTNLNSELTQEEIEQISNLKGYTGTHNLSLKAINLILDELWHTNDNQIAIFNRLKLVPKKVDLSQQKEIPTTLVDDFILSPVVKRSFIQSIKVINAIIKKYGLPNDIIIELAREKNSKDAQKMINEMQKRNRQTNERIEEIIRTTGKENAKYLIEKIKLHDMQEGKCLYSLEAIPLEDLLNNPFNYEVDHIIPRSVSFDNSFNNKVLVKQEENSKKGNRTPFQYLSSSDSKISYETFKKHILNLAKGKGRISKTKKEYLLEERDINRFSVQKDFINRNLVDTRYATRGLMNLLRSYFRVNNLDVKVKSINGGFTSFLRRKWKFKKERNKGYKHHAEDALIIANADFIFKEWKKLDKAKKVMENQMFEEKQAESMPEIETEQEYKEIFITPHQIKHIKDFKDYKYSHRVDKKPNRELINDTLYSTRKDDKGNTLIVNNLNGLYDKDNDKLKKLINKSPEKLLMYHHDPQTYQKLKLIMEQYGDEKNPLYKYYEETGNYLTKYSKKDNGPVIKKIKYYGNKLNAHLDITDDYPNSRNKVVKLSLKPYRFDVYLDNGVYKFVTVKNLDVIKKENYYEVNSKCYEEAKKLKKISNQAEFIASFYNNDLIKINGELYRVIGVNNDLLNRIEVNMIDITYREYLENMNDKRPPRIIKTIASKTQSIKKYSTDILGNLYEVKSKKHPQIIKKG
Assay: Strand displacement assay, SaCas9 primary screen
Type: biochemical
Conditions: SaCas9 primary screen, Auto Zscore, replicate 2
Each entry below lists one item and its recorded Auto Zscore Rep 2 value.
Quantity name: Auto Zscore Rep 2

>  <Compound>
CN(C)S(=O)(=O)Nc1ccc(N2CCC(CCN3CCOCC3)CC2)c(C(=O)O)c1

>  <Quantity name>
Auto Zscore Rep 2

>  <Recorded value>
0.2518

$$$$
>  <Compound>
Cc1cc(C)c(S(=O)(=O)Nc2cnc(N(CC(C)C)CC(C)C)c(C(=O)O)c2)cc1C

>  <Quantity name>
Auto Zscore Rep 2

>  <Recorded value>
0.2997

$$$$
>  <Compound>
CS(=O)(=O)Nc1cnc(N2CCC(CCN3CCOCC3)CC2)c(C(=O)O)c1

>  <Quantity name>
Auto Zscore Rep 2

>  <Recorded value>
0.2374

$$$$
>  <Compound>
Cc1cc(-c2nnc3sc(COc4ccccc4Cl)nn23)[nH]n1

>  <Quantity name>
Auto Zscore Rep 2

>  <Recorded value>
0.05327

$$$$
>  <Compound>
CCCCN(CC)c1ncc(NS(=O)(=O)CC)cc1C(=O)O

>  <Quantity name>
Auto Zscore Rep 2

>  <Recorded value>
−0.08392

$$$$
>  <Compound>
c1ccc(-c2nnc3sc(-c4ccncc4)nn23)nc1

>  <Quantity name>
Auto Zscore Rep 2

>  <Recorded value>
1.249

$$$$
>  <Compound>
Cc1noc2c1C(c1ccc(O)c(O)c1)C1=C(CC(c3ccccc3)CC1=O)N2 (stereo not drawn)

>  <Quantity name>
Auto Zscore Rep 2

>  <Recorded value>
−0.8337

$$$$
>  <Compound>
O=C(O)c1cc(NS(=O)(=O)c2cc(F)ccc2F)cnc1N1CCOCC1

>  <Quantity name>
Auto Zscore Rep 2

>  <Recorded value>
0.6834

$$$$
>  <Compound>
CCN(Cc1ccccc1)c1ccc(NS(=O)(=O)c2ccccc2)cc1C(=O)O

>  <Quantity name>
Auto Zscore Rep 2

>  <Recorded value>
−1.139

$$$$
>  <Compound>
O=C1CC(c2ccc(O)c(O)c2)c2c(nc(SCc3ccc(Cl)cc3)[nH]c2=O)N1 (stereo not drawn)

>  <Quantity name>
Auto Zscore Rep 2

>  <Recorded value>
−0.04169

$$$$
>  <Compound>
COc1cccc(CNCc2cccn2-c2sc(C)c(C)c2C(=O)O)c1

>  <Quantity name>
Auto Zscore Rep 2

>  <Recorded value>
0.8302

$$$$
>  <Compound>
Cc1n[nH]c2c1C(c1ccc(O)c(O)c1)CC(=O)N2 (stereo not drawn)

>  <Quantity name>
Auto Zscore Rep 2

>  <Recorded value>
−0.05734

$$$$
>  <Compound>
Cn1nc(-c2ccc(Cl)cc2)c2cc(C(=O)O)sc21

>  <Quantity name>
Auto Zscore Rep 2

>  <Recorded value>
1.188

$$$$
>  <Compound>
CCN(Cc1ccccc1)c1ccc(NS(=O)(=O)c2ccc(OC)cc2)cc1C(=O)O

>  <Quantity name>
Auto Zscore Rep 2

>  <Recorded value>
−1.427

$$$$
>  <Compound>
NC(=O)c1sc(=S)n(Cc2ccccc2)c1N

>  <Quantity name>
Auto Zscore Rep 2

>  <Recorded value>
0.1928

$$$$
>  <Compound>
CN1C(C(=O)Nc2sc3c(c2C(N)=O)CCCC3)=CC(c2ccc(F)cc2)=NS1(=O)=O

>  <Quantity name>
Auto Zscore Rep 2

>  <Recorded value>
−0.5622

$$$$
>  <Compound>
O=c1oc2cc(OCc3nnn[nH]3)c(Cl)cc2c2c1CCC2

>  <Quantity name>
Auto Zscore Rep 2

>  <Recorded value>
2.456

$$$$
>  <Compound>
Cc1occc1-c1nnc2sc(COc3ccc(Br)cc3)nn12

>  <Quantity name>
Auto Zscore Rep 2

>  <Recorded value>
−0.6566

$$$$

---

Target: UniProt:J7RUA5
Experiment: Strand displacement assay, SaCas9 primary screen
Format: biochemical
Conditions: SaCas9 primary screen, weaker potential hits, replicate 1

>  <Molecule>
COc1ccc(OC)c(S(=O)(=O)Nc2cnc(N3CCCC3)c(C(=O)O)c2)c1 [Cpd F293-0436]

>  <System name>
UniProt:J7RUA5

>  <Normalized Zscore Rep 1>
0.1977

$$$$
>  <Molecule>
Cc1ccc(OCc2nn3c(-c4ccoc4C)nnc3s2)cc1 [Cpd D727-0112]

>  <System name>
UniProt:J7RUA5

>  <Normalized Zscore Rep 1>
0.2865

$$$$
>  <Molecule>
CC(C)NC(=O)CN1CCN(c2ccc(C(=O)O)cc2NC(=O)c2ccccc2Cl)CC1 [Compound F086-0028]

>  <System name>
UniProt:J7RUA5

>  <Normalized Zscore Rep 1>
0.2467

$$$$
>  <Molecule>
CCOc1ccc(NC(=O)c2oc3cc(C)ccc3c2C)c2cccnc12 [Cpd D656-0040]

>  <System name>
UniProt:J7RUA5

>  <Normalized Zscore Rep 1>
0.4389

$$$$

---

Each entry below lists one item and its recorded Normalized Zscore Rep 1 value.
Biological target: SaCas9 (Staphylococcus aureus)
Assay: Strand displacement assay, SaCas9 primary screen
Format: biochemical
Conditions: SaCas9 primary screen, weaker potential hits, replicate 1
Procedure: An overview of the screening for SaCas9 inhibitors is depicted in FIG. 14. A total of 43,168 Compounds were screened from the ICCB Libraries. […] A hit is determined from the Zscore, with 3-5σ being a weak hit, >5σ being a strong hit. […] Generalization of CAA to other Cas nucleases. […] Given the similarities between SaCas9 and SpCas9 modes of DNA-substrate binding and protein folding,^26, 27 Applicants hypothesized that SaCas9-induced strand displacement could be similarly measured. […]

>  <Compound>
CN(C)c1ncc(NS(=O)(=O)c2cc(F)ccc2F)cc1C(=O)O

>  <Normalized Zscore Rep 1>
0.2358

$$$$
>  <Compound>
O=C1CC(c2ccc(O)c(O)c2)c2c(nc(SCc3cccc(Cl)c3)[nH]c2=O)N1 (stereo not shown)

>  <Normalized Zscore Rep 1>
0.1908

$$$$
>  <Compound>
CCN(Cc1ccccc1)c1ccc(NS(=O)(=O)c2c(C)cc(C)cc2C)cc1C(=O)O

>  <Normalized Zscore Rep 1>
0.2241

$$$$
>  <Compound>
CCN(Cc1ccccc1)c1ccc(NS(=O)(=O)c2cc(C)ccc2C)cc1C(=O)O

>  <Normalized Zscore Rep 1>
0.1692

$$$$

---

Molecular target: SpCas9 (Streptococcus pyogenes serotype M1)
Sequence (Q99ZW2 whole entry): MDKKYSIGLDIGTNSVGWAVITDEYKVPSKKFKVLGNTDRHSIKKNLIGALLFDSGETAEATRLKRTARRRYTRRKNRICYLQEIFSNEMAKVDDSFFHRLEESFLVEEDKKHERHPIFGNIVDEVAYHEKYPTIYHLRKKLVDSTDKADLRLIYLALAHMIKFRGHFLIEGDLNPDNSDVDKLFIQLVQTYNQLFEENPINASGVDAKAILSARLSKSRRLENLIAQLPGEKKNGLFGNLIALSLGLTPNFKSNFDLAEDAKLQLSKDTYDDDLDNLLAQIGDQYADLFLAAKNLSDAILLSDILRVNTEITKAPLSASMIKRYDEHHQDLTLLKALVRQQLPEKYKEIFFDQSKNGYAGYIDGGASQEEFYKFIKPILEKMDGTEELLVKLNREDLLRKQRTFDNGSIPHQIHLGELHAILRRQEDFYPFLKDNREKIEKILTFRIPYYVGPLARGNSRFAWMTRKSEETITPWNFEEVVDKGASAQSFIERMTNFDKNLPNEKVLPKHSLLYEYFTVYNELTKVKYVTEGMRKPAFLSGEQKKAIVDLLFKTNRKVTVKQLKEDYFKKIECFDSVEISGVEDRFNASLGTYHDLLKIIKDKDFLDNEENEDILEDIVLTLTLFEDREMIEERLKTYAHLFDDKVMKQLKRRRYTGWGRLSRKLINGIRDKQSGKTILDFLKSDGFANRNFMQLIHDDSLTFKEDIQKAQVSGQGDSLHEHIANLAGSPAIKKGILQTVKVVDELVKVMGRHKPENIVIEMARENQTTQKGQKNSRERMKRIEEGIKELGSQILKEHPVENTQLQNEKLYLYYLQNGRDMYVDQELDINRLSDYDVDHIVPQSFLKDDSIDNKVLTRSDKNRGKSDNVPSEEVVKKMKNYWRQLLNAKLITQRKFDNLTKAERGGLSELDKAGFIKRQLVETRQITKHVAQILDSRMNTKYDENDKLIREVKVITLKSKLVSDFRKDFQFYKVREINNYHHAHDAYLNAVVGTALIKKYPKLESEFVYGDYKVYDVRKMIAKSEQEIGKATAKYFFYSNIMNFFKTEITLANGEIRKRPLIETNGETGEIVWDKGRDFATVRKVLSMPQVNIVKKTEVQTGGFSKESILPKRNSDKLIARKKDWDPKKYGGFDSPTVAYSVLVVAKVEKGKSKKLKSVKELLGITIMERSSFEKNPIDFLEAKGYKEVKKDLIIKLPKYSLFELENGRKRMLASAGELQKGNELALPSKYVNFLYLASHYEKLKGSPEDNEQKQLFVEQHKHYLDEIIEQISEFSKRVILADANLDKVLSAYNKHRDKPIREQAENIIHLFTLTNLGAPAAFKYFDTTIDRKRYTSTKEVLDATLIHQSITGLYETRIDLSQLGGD
Assay: Strand displacement assay (SDA) / cumulative activity assay (CAA), SpCas9 primary screen
Type: biochemical
Conditions: Primary Screen (150 min)
Each entry below lists one item and its recorded avg z score primary value.

>  <Compound>
O=C([O-])C(O)Cc1ccc(O)c(O)c1.[Na+] (centres unmarked) [Compound S2401]

>  <avg z score primary>
4.93

$$$$
>  <Compound>
O=C(CCC(=O)c1ccc(F)cc1)OC1CCOC1=O (centres unmarked) [Compound T0512-8635]

>  <avg z score primary>
4.05

$$$$
>  <Compound>
Cc1ncc(-c2ccnc(Nc3ccc(S(C)(=O)=O)cc3)n2)n1C(C)C [Compound S2621]

>  <avg z score primary>
6.88

$$$$
>  <Compound>
Cl.Cl.Fc1cc(-c2cccc3ncc(-c4cnn(C5CCNCC5)c4)nc23)cc(F)c1CN1CCOCC1 [Compound S2686]

>  <avg z score primary>
7.03

$$$$
>  <Compound>
O=C(NCc1ccc2c(c1)OCO2)c1cccc(Oc2cc(-c3ccccc3)ncn2)c1 [Compound L663-1076]

>  <avg z score primary>
7.72

$$$$
